target.entity: recombinant hGYS1/GN1 protein (Homo sapiens, UniProt P13807)
assay.protocol: GYS1 coupled enzyme assay (PK/LDH)
test.context: geometric mean of at least 2 assay runs; NADH absorbance at 340 nm
pIC50: −log10 of the molar value.
parameter.measured: pIC50

# input compound: "CC(C)c1ccc([C@@H](NC(=O)[C@H]2C[C@@H]2F)c2ccccc2NC(=O)C2CCN(CC3CC3)CC2)cc1" ; wanted: its pIC50
6.05

A = CC(C)c1ccc([C@@H](NC(=O)[C@H]2C[C@@H]2F)c2ccccc2NC(N)=O)cc1F (single isomer, unassigned)
B = CC(C)c1ccc([C@@H](NC(=O)C2CC2)c2ccccc2NC(N)=O)cc1
C = CC(C)c1ccc([C@@H](NC(=O)C2CC2)c2ccccc2NS(C)(=O)=O)cc1
Rank the 3 compounds: largest pIC50 first, smallest last. Labels, ranked as asked.
A, B, C

---

target.entity: recombinant hGYS1/GN1 protein (Homo sapiens)
Sequence (P13807 1-737): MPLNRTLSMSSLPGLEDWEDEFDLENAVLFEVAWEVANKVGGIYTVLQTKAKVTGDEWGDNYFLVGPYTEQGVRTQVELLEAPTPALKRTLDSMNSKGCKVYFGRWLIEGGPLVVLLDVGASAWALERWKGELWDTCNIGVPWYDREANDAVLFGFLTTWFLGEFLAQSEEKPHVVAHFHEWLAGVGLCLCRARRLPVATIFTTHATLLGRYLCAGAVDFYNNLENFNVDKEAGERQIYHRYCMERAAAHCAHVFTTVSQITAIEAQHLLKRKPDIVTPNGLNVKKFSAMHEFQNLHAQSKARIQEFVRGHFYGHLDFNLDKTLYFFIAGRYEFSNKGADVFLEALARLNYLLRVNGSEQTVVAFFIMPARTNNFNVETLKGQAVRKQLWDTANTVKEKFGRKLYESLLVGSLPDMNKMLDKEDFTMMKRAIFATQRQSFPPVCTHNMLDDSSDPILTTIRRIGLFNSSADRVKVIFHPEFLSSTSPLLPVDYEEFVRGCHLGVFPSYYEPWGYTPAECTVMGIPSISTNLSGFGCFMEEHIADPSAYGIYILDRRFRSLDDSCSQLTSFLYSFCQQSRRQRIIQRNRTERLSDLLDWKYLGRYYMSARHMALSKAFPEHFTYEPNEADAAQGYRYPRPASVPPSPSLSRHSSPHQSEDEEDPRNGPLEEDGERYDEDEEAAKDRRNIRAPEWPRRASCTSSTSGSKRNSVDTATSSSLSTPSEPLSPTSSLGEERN
Sequence (P46976 1-350 partner): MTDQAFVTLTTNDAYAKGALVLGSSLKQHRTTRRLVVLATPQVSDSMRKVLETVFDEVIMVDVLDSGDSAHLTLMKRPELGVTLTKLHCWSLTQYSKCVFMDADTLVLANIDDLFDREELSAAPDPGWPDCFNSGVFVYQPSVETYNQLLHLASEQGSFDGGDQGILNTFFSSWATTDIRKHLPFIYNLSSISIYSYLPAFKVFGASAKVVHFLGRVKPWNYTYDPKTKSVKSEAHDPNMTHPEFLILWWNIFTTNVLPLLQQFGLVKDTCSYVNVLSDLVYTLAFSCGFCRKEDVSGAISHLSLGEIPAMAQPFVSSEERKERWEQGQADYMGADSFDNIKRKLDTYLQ
assay.protocol: GYS1 coupled enzyme assay (PK/LDH)
test.context: geometric mean of at least 2 assay runs; NADH absorbance at 340 nm
parameter.measured: IC50 (nM)

# input compound: "CC(=O)N1CC(C(=O)Nc2ccccc2[C@H](NC(=O)C2CC2)c2ccc(C(C)C)cc2)C1" ; wanted: its IC50
1060

1 = CC(=O)N[C@@H](CC(N)=O)C(=O)N[C@H]1CCC[C@H]1C(=O)N[C@@H](c1ccccc1)c1ccc(C(C)C)cc1
2 = CC(C)c1ccc([C@@H](NC(=O)C2CC2)c2ccccc2NC(=O)C2CN(C)C2)cc1
Hi there! Just curious which has the higher IC50 between 1 and 2 . Kindly state the label of the option you pick.
1
(1: 2970 nM, 2: 1190 nM)

---

target.entity: recombinant hGYS1/GN1 protein (Homo sapiens, UniProt P13807)
assay.protocol: GYS1 coupled enzyme assay (PK/LDH)
test.context: geometric mean of at least 2 assay runs; NADH absorbance at 340 nm
parameter.measured: IC50 (nM)

# input compound: Cc1ccccc1[C@H](NC(=O)C1CC1)c1ccc(C(C)C)cn1 (single isomer, unassigned) ; wanted: its IC50
1810

a = CC(=O)Nc1ccc(F)cc1[C@H](NC(=O)C1CC1)c1ccc(C(C)C)cc1 (single isomer, unassigned)
b = CC(C)c1ccc([C@@H](NC(=O)C2CC2)c2ccccc2NC(=O)[C@@H]2CCN2)cc1
c = CC(C)c1ccc([C@@H](NC(=O)[C@H]2C[C@@H]2F)c2ccc3cn[nH]c3c2)nc1F (single isomer, unassigned)
d = CC(C)c1ccc([C@@H](NC(=O)C2CC2)c2cccc3[nH]c(=O)[nH]c23)cc1 (single isomer, unassigned)
e = NC(=O)Nc1ccccc1[C@H](NC(=O)C1CC1)c1ccc(C2CCC2)cc1 (single isomer, unassigned)
Order each entry by recorded IC50, climbing from the minimum. Labels, ranked as asked.
c, d, a, e, b

a = CC(=O)N1CC[C@H]1C(=O)Nc1ccccc1[C@H](NC(=O)C1CC1)c1ccc(C(C)C)cc1
b = NC(=O)Nc1ccccc1[C@H](NC(=O)C1CC1)c1ccc(C2CC2)cc1 (single isomer, unassigned)
c = CC(=O)Nc1cccc([C@H](NC(=O)C2CC2)c2ccc(C(C)C)cc2)c1
Rank the 3 compounds: largest IC50 first, smallest last. Labels, ranked as asked.
b, a, c
(b: 2220 nM, a: 1480 nM, c: 737 nM)

A = CC(=O)N[C@H]1CCC[C@H]1C(=O)N[C@@H](c1ccccc1)c1ccc(C(C)C)cc1
B = CC(C)c1ccc([C@@H](NC(=O)C2CC2)c2ccccc2NC(=O)C2CNC2)cc1
Hi there! Just curious which has the higher IC50 between A and B . Kindly state the label of the option you pick.
A

---

target.entity: recombinant hGYS1/GN1 protein (Homo sapiens, UniProt P13807)
assay.protocol: GYS1 coupled enzyme assay (PK/LDH)
test.context: geometric mean of at least 2 assay runs; NADH absorbance at 340 nm
pIC50: −log10 of the molar value.
parameter.measured: pIC50

Reference set (5 entries):
# input molecule: "COc1cccc([C@H](NC(=O)C2CC2)c2ccc(C(C)C)cc2)c1C" ; wanted: its pIC50
5.85

Follow-up item: "CC(C)c1ccc([C@@H](NC(=O)C2CC2)c2ccccc2NC(=O)C2CN(CC(F)(F)F)C2)cc1"
5.92

Follow-up item: "COCCN1CCC(C(=O)Nc2ccccc2[C@H](NC(=O)[C@H]2C[C@@H]2F)c2ccc(C(C)C)cc2)CC1"
5.98

Follow-up item: "CC(C)c1ccc([C@@H](NC(=O)C2CC2)c2ccccc2NC(=O)C2COC2)cc1"
6.28

Follow-up item: CC(C)c1ccc([C@@H](NC(=O)[C@H]2C[C@@H]2F)c2ccn[nH]2)cc1F (single isomer, unassigned)
6.84

I = CC(C)c1ccc([C@@H](NC(=O)C2CC2)c2ccccc2NC2NC(=O)N(C)C2=O)cc1 (stereo partly shown)
II = CC(C)c1ccc([C@@H](NC(=O)[C@H]2C[C@@H]2F)c2ccccc2NC(=O)C2CCN(C)CC2)cc1
Pick one, I or II : lowest reported pIC50. Kindly state the label of the option you pick.
II
(II: 5.79, I: 6.53)

1 = CCC(=O)Nc1ccccc1[C@H](NC(=O)C1CC1)c1ccc(C(C)C)cc1
2 = Cc1ccccc1[C@H](NC(=O)[C@@H]1CCC[C@@H]1C(=O)NC#N)c1ccc(C(C)C)cc1
3 = COC(=O)CCNC(=O)[C@H]1CCC[C@H]1C(=O)N[C@H](c1ccc(C(C)C)cc1)c1ccccc1C
Order each entry by recorded pIC50, climbing from the minimum. Labels, ranked as asked.
3, 2, 1
(3: 5.53, 2: 5.89, 1: 6.36)

A = CC(C)c1ccc([C@@H](NC(=O)C2CC2)c2ccccc2O)cc1
B = CC(C)c1ccc([C@@H](NC(=O)C2CC2)c2ccnn2C)cc1 (single isomer, unassigned)
Pick one, A or B : lowest reported pIC50. Kindly state the label of the option you pick.
B
(B: 5.74, A: 6.53)

A = CC(C)c1ccc([C@@H](NC(=O)C2CC2)c2cccc(O)c2)cc1
B = COc1ccccc1[C@H](NC(=O)C1CC1)c1ccc(C(C)C)cn1 (single isomer, unassigned)
C = CC(C)c1ccc([C@@H](NC(=O)C2CC2)c2ccc(O)cc2)cc1
Rank the 3 molecules: largest pIC50 first, smallest last. Labels, ranked as asked.
A, C, B

---

target.entity: recombinant hGYS1/GN1 protein (Homo sapiens, UniProt P13807)
assay.protocol: GYS1 coupled enzyme assay (PK/LDH)
test.context: geometric mean of at least 2 assay runs; NADH absorbance at 340 nm
pIC50: −log10 of the molar value.
parameter.measured: pIC50

Reference set (10 entries):
# input compound: "CC(=O)Nc1ccccc1[C@H](NC(=O)C1CC1)c1ccc(C(C)C)cc1" ; wanted: its pIC50
6.55

Follow-up item: "COCCN1CC(C(=O)Nc2ccccc2[C@H](NC(=O)C2CC2)c2ccc(C(C)C)cc2)C1"
5.92

Follow-up item: "CC(C)c1ccc([C@@H](NC(=O)[C@@H]2C[C@H]2F)c2ccccc2)cc1"
6.22

Follow-up item: Cc1ccccc1[C@H](NC(=O)C1CC1)c1ccc(C(C)C)cc1 (single isomer, unassigned)
6.29

Follow-up item: "CC(C)c1ccc([C@@H](NC(=O)[C@H]2C[C@@H]2F)c2ccccc2NC(=O)C2CCN(CC(F)(F)F)CC2)cc1"
6.02

Follow-up item: CC(C)c1ccc([C@@H](NC(=O)C2CC2)c2ccccc2N)cc1 (single isomer, unassigned)
6.39

Follow-up item: CC(C)c1ccc([C@@H](NC(=O)[C@H]2C[C@@H]2F)c2cccc(-c3ccn[nH]3)c2)nc1F (single isomer, unassigned)
6.81

Follow-up item: "COc1ccc([C@H](NC(=O)C2CC2)c2ccc(C(C)C)cc2)cc1"
5.57

Follow-up item: CC(C)c1ccc([C@@H](NC(=O)C2CC2)c2cccnc2N)cc1 (single isomer, unassigned)
6.13

Follow-up item: CNc1ccccc1[C@H](NC(=O)C1CC1)c1ccc(C(C)C)cc1 (single isomer, unassigned)
6.30

a = CC(C)c1ccc([C@@H](NC(=O)[C@@H]2CCC[C@@H]2NC(N)=O)c2ccccc2)cc1
b = CC(C)c1ccc([C@@H](NC(=O)C2CC2)c2ccccc2NC(=O)C2CC2)cc1 (single isomer, unassigned)
c = CC(C)c1ccc([C@@H](NC(=O)C2CC2)c2ccccc2NC(=O)C2CN(CC3CC3)C2)cc1
Rank the 3 compounds: largest pIC50 first, smallest last. Labels, ranked as asked.
b, c, a
(b: 6.15, c: 5.94, a: 5.72)
